- System: HCC-2998 colon
- Procedure Text: NCI-60 one-dose screen, 48 h (100 = growth as untreated, 0 = no growth, -100 = all killed)
- Condition: 10 µM unless noted
About 83,000 compounds went through this panel and 20% of them were active in at least one assay; those are over-represented in the sample as a whole.
// reported growth for each item listed
Property Label: growth (%)

>>> readout_value("O=C(O)c1cn(C2CC2)c2cc(N3CCN(C(=O)Nc4nc(-c5ccc(Br)cc5)cs4)CC3)c(F)cc2c1=O")
35.4
>>> readout_value("Cc1cccc(-c2nc(Nc3ccc4ncsc4c3)c3ccccc3n2)n1")
116
>>> readout_value("COc1ccc(-c2nn(-c3ccccc3)cc2/C=C/C(=O)NNC(=O)Nc2ccc(C)cc2)cc1")
96.7
>>> readout_value("CNC(=O)c1cc(Oc2cccc3nc(NC(=O)Nc4cc(C(F)(F)F)ccc4Cl)ccc23)ccn1")
115
>>> readout_value("CCN(CC)c1ccc(/C=N/NC(=O)Cc2ccc(Nc3ccnc(C(F)(F)F)c3)cc2)c(O)c1")
26.9
>>> readout_value("CN(CCCNC(=O)Cc1ccc2ccc3cccc4ccc1c2c34)CCCNc1cc(-c2ccc3ccccc3c2)nc2ccccc12")
-89.1
>>> readout_value("O=C(Cc1ccc(/C=C/C(=O)c2ncc[nH]2)cc1)Nc1cc(C(F)(F)F)cc(C(F)(F)F)c1")
63
>>> readout_value("COc1cccc(/C=C/C(=O)c2cc3c(N)c(C(=O)Nc4cccc5ccccc45)sc3nc2C)c1")
-23.8
>>> readout_value("O=C(Cc1ccc(NC(=O)c2cccc(Cl)c2)cc1)NCc1ccccc1")
73.3
>>> readout_value("CN1CCN(CC(=O)Nc2ccc3ncnc(Nc4ccc(Oc5cccc(C(F)(F)F)c5)c(Cl)c4)c3c2)CC1")
-5.89
>>> readout_value("c1nc2ccc(-c3cc4ccc5[nH]ncc5c4c4c3CCCC4)cc2[nH]1")
75.5
>>> readout_value("COC(=O)c1ccc(NC(=O)Nc2ccc(C(=O)OC)cc2)cc1")
108
>>> readout_value("COc1ccc(/C=C2\\COc3ccc(O)cc3C2=O)cc1")
103
>>> readout_value("Oc1c(CN2CCCC2)cc(CSCc2ccccc2)c2cccnc12")
34.8
>>> readout_value("Cc1ccc(/C=C/C(=O)c2ccc(-n3cc(CN4CCN(c5cc6c(cc5F)c(=O)c(C(=O)O)cn6C5CC5)CC4)nn3)cc2)cc1")
92.4
>>> readout_value("O=C(Cc1ccccc1)Nc1cccc(N=Cc2ccccc2O)c1")
106
>>> readout_value("Cc1ccc(/C=C/C(=O)c2cccc(OCCCOc3cccc(C(=O)/C=C/c4ccc(C)cc4)c3)c2)cc1")
66.3
>>> readout_value("CC/C(Cc1ccccc1)=C(\\c1ccc(OCCCN(C)C)cc1)c1ccc(OC(=O)NCc2ccccc2)cc1")
70.4
>>> readout_value("COc1ccc(C(=O)c2cc3c(N)c(C(=O)Nc4ccccc4)sc3nc2C)cc1")
19

* * *

- Tested on: TK-10 renal
- Procedure Text: NCI-60 one-dose screen, 48 h
- Condition: 10 µM unless noted
About 83,000 compounds went through this panel and 20% of them were active in at least one assay; those are over-represented in the sample as a whole. Activity calls are given as the source filed them. How the source made its calls: active means growth percent below 10; inactive means the rest.
Possible outcomes: YES for active, NO for inactive

>>> label("O=C(CC(=O)Nc1cccc(C(=O)O)c1)Nc1cccc(C(=O)O)c1")
"NO"
>>> label("CCN(CC)CCN1C(=O)c2c(c(C)c3c(oc4ccc(O)cc43)c2C)C1=O")
"YES"
>>> label("CCO/C=N/C1=C(C#N)C(c2ccc(F)cc2)c2sc3c(F)cccc3c2O1 (stereo unspecified)")
"NO"
>>> label("Cc1ccc(S(=O)(=O)Oc2ccc3sc4cccc(NCCN(C)C)c4c(=O)c3c2)cc1")
"YES"
>>> label("COc1ccc(-c2nc(-c3cn(C)c4ncccc34)cs2)cc1")
"YES"
>>> label("COc1ccc2c(c1)CCc1[nH]nc(-c3cc(OC)c(OC)c(OC)c3)c1-2")
"NO"
>>> label("CCCCCCCCCCCCCCCCCCOc1ccccc1CC(=O)NCC[N+]1(C)CCCCC1")
"NO"
>>> label("O=C(Cc1cccc(OC(F)(F)F)c1)Nc1ccc(CCCCc2nnc(NC(=O)Cc3ccccn3)s2)nn1")
"NO"
>>> label("Cn1cc(-c2csc(-c3cn(CCCN4CCOCC4)c4ccccc34)n2)c2cccnc21")
"NO"
>>> label("N#Cc1ccc(O)c(C2=NCC(Cc3ccccc3)O2)c1 (stereo unspecified)")
"NO"
>>> label("O=C1Nc2ccccc2C1(c1c[nH]c2ccccc12)c1c[nH]c2ccccc12")
"YES"

* * *

- Test system: SF-295 CNS
- Procedure Text: NCI-60 one-dose screen, 48 h
- Condition: 10 µM unless noted
Compounds without any hit were thinned out: in the full panel of roughly 83,000, 20% have a hit. Calls of active or inactive are those of the source. Rule for the calls: active = growth percent below 10; inactive = the rest.
Outcomes: True for active, False for inactive

>>> label("O=C(Oc1ccc(CCl)cc1)c1ccccc1")
"True"
>>> label("COc1ccc2c(c1)c(-c1nc(-c3c[nH]c4ncccc34)cs1)cn2CCO")
"False"
>>> label("C/C(=N\\O)c1ccc(NC(=O)CSc2nnc(-c3cc(-c4ccc(S(C)(=O)=O)cc4)nc4ccccc34)n2-c2ccccc2)cc1")
"False"
>>> label("O=C1c2ccccc2C(=O)c2c1cc1c(c2[N+](=O)[O-])OCO1")
"False"
>>> label("CCN1C(=O)N(CC)C2C1N=C(SCc1ccc(Cl)cc1)N2/N=C/C=C/c1ccccc1OC (stereo not given)")
"False"
>>> label("CC1C=CC(OC(=O)C(C)(O)CCC(O)(C(=O)OC2CC(O)C(C(C)C)CC2(C)O)C(C)C)(C(C)C)CC1 (stereo not given)")
"True"
>>> label("CCOC(=O)C(=Cc1ccc(-c2ccccc2)cc1)C(=O)OCC")
"False"
>>> label("CCc1n(Cc2ccc3ccccc3n2)cc[n+]1Cc1ccc2ccccc2n1")
"False"
>>> label("Cc1ccc(-c2csc(N(C(=O)N3CCN(c4cc5c(cc4F)c(=O)c(C(=O)O)cn5C4CC4)CC3)c3ccccc3)n2)cc1")
"True"
>>> label("Nc1nc(NC(=O)Nc2ccc(C(=O)O)cc2)nn1-c1ccc(S(N)(=O)=O)cc1")
"False"
>>> label("COc1cc(Cl)c(C)cc1NC(=O)c1cc2ccccc2cc1O")
"True"
>>> label("N#CSc1c[nH]c2cccc(/C=C/C(=O)/C=C(O)/C=C/c3cccc4[nH]cc(SC#N)c34)c12")
"True"
>>> label("NC(N)=NS(=O)(=O)c1ccc(NC2=C(I)C(=O)c3ncccc3C2=O)cc1")
"False"
>>> label("C=C1C(=O)O[C@H]2[C@H]1CC/C(CNC(=O)c1c[nH]c3ccc(F)cc13)=C\\CC[C@@]1(C)O[C@@H]21")
"False"
>>> label("COc1cccc(Nc2ncnc3cc(NC(=O)CCl)ccc23)c1")
"True"
>>> label("COc1cccc(NCc2nnc(Nc3ccc(Cl)cc3)c3ccccc23)c1")
"True"
>>> label("COC(=O)c1nc(-c2ccccc2)oc1S(=O)(=O)NCC(c1ccc(Cl)cc1)N1CCOCC1 (stereo not given)")
"False"
>>> label("CN1CCN(c2ccc3nc4c(nc3c2C(F)(F)F)C(=O)c2ncccc2C4=O)CC1")
"True"
>>> label("CNC(C)[C@H]1CCC2C3CC=C4C(=O)[C@@H](NC(=O)C=C(C)C)CC[C@]4(C)C3CC[C@@]21C (stereo not given in full)")
"True"
>>> label("C/C=C(/C)n1cnc2c(Nc3ccccn3)nc(Cl)nc21")
"False"

* * *

- System: M14 melanoma
- Procedure Text: NCI-60 one-dose screen, 48 h
- Condition: 10 µM unless noted
The panel holds about 83,000 compounds, 20% with a hit somewhere; the sample as a whole holds those more often. Activity calls are given as the source filed them. The calls were made as follows: active = growth percent below 10; inactive = the rest.
Outcomes: active, inactive

>>> label("CN(CCCNC(=O)CCOCCOCCOCCNC(=O)Cc1ccc2ccc3cccc4ccc1c2c34)CCCNc1cc(-c2ccc3ccccc3c2)nc2ccccc12")
"active"
>>> label("Cc1n[nH]c2ccc(Br)cc2c1=O")
"inactive"
>>> label("COc1ccc(C(=O)/C=C/c2ccc(Cl)cc2)cc1S(=O)(=O)Nc1c(N)nc(SC)[nH]c1=O")
"inactive"
>>> label("CC(C)(C)n1cc(-c2ccnc(NCCCNS(=O)(=O)c3ccc(C(F)(F)F)cc3)c2)c(-c2cccc(F)c2)n1")
"inactive"
>>> label("Cc1ccc2c(-n3nc(C#N)c(C#N)c3N)cc(=O)[nH]c2c1")
"inactive"
>>> label("O=C(Nc1ccccc1N1CCCC1=O)c1oc2ccc(F)cc2c1-c1cnn(-c2ccccc2)c1")
"inactive"
>>> label("Cc1nc2cc(O)c(O)cc2cc1Oc1ccc(NC(=O)Nc2ccc(Cl)c(Cl)c2)cc1")
"inactive"
>>> label("O=S(=O)(NCCNc1nccc(-c2c(-c3ccc(F)c(O)c3)nc3sccn23)n1)c1ccc(F)cc1")
"inactive"
>>> label("Cc1ccc(/C=C/C(=O)c2ccc(-n3cc(CN4CCN(c5cc6c(cc5F)c(=O)c(C(=O)O)cn6C5CC5)CC4)nn3)cc2)cc1")
"inactive"
>>> label("CC(=O)ON1CCCC(P(=O)(OCCSC(=O)C(C)(C)C)OCCSC(=O)C(C)(C)C)C1=O (stereo unspecified)")
"inactive"
>>> label("Oc1c(CN2CCCC2)cc(CSCc2ccccc2)c2cccnc12")
"active"
>>> label("COC(=O)c1c2c(c(C)[n+]([O-])c1C)C(=O)C(NCc1cccc(Cl)c1)=CC2=O")
"active"
>>> label("Cc1ccccc1Nc1cc(O)c2c(=O)cc(-c3ccccc3)oc2c1")
"inactive"
>>> label("CCOC(=O)CC1CSC(Nc2ccccc2)=N1 (stereo unspecified)")
"inactive"
>>> label("C=C1C(=O)O[C@H]2[C@H]1CC/C(COC(=O)c1cc3cc(Cl)ccc3[nH]1)=C\\CC[C@@]1(C)O[C@@H]21")
"active"
>>> label("Cc1nc2ccccc2c(/C=C/c2ccccc2)c1C(=O)/C=C/c1ccccc1")
"inactive"
>>> label("COc1ccc2c(c1)CCc1[nH]nc(-c3cc(OC)c(OC)c(OC)c3)c1-2")
"active"
>>> label("O=C(CSc1nc(-c2ccccc2)cc(=O)[nH]1)Nc1nc(-c2ccccc2)cs1")
"inactive"
>>> label("C=C(C)[C@@H]1CC[C@]2(C)[C@H](CC=C3[C@@H]4CC(C)(C)CC[C@]4(CO)CC[C@]32C)[C@@]1(C)CCCN")
"active"
>>> label("CCN(CC)CCN1C(=O)c2cccc3c(/C=C/CN4C(=O)c5cccc6cccc(c56)C4=O)ccc(c23)C1=O")
"inactive"
>>> label("O=C1/C=C/[C@@H](O)[C@@H]2C[C@@H](O)C[C@H]2/C=C/CCC[C@@H](O)CCO1")
"inactive"
>>> label("CN1CCN(Cc2ccc(NC(=O)c3cncc(C#Cc4cnc(N)c5ccc(F)cc45)c3)cc2C(F)(F)F)CC1")
"active"
>>> label("COc1ccc(N2CCN(C(=O)c3sc4nc(C)c(Br)c(C)c4c3N)CC2)cc1")
"inactive"
>>> label("N#C/C(=C\\c1cn(Cc2ccccc2)c2ccccc12)C(=O)Nc1ncc(Cc2ccccc2Cl)s1")
"inactive"
>>> label("COc1ccc(/C=C/C(c2cc(OC)c(OC)c(OC)c2)n2cncn2)cc1 (stereo unspecified)")
"inactive"
>>> label("CCN1CCN(C(=O)[C@]23CC[C@@H](C)[C@H](C)[C@@H]2C2=CC[C@@H]4[C@@]5(C)C/C(=C/c6cccnc6)C(=O)C(C)(C)[C@@H]5CC[C@@]4(C)[C@]2(C)CC3)CC1")
"inactive"
>>> label("Clc1ccccc1-c1cnn2cc(-c3ccccc3)cnc12")
"inactive"
>>> label("O=C(Nc1ncc(Cc2cc(C(F)(F)F)ccc2Cl)s1)c1cccs1")
"inactive"
>>> label("C[C@H](CCCC(=O)NCC#CCN1CCN(C)CC1)[C@H]1CC[C@H]2[C@@H]3CC[C@@H]4CC(=O)CC[C@]4(C)[C@H]3CC[C@]12C")
"inactive"
>>> label("N#Cc1nc(-c2ccccc2)oc1S(=O)(=O)N1CCN(c2ccc(F)cc2)CC1")
"inactive"
>>> label("CCN1CCN(CC(=O)Nc2nc3ccc(NCc4ccc(F)cc4)cc3s2)CC1")
"inactive"
>>> label("O=C(Cc1ccccc1)Nc1cccc(N=Cc2ccccc2O)c1")
"inactive"
>>> label("COc1ccc(CCN2C(=O)/C(=C/c3ccc(C4Oc5ccccc5C5CC(c6ccccc6)=NN54)cc3)SC2=S)cc1 (stereo unspecified)")
"inactive"
>>> label("COc1ccc(Oc2nc(Nc3ccc(N4CCOCC4)cc3)ncc2NC(=O)Nc2cc(OC)cc(OC)c2)cc1")
"inactive"
>>> label("COc1ccc(C(=O)/C=C/c2ccc(N3CCCCC3)cc2)cc1OC")
"inactive"
>>> label("Cc1nc2c(=O)nc3s/c(=C\\c4ccco4)c(=O)n3c2nc1C")
"inactive"
